# ASSAYED_SYSTEM: HLA-B*18:01
# TEST: IEDB peptide-MHC binding, purified MHC/direct/fluorescence; filed as Kd, often an IC50 or EC50 that approximates it; bounds were set here for any values at or beyond the usual limits of such assays
# ASSAY_CONTEXT: source organism: Mammarenavirus lassaense
REPORTED_ENDPOINT: Kd (µM)
Numeric answer only, unit µM assumed.

Kindly state the measured Kd obtained for VENSPRASL with HLA-B*18:01.
0.552

* * *

# ASSAYED_SYSTEM: HLA-B*18:01
# TEST: IEDB peptide-MHC binding, purified MHC/direct/fluorescence; filed as Kd, often an IC50 or EC50 that approximates it; bounds were set here for any values at or beyond the usual limits of such assays
# ASSAY_CONTEXT: source organism: Mycobacterium tuberculosis variant bovis
pKd: −log10 of the molar value.
REPORTED_ENDPOINT: pKd

Report pKd for PMQQLTQPL please.
≤ 4.70

* * *

# ASSAYED_SYSTEM: HLA-B*57:01
# TEST: IEDB peptide-MHC binding, purified MHC/direct/fluorescence; filed as Kd, often an IC50 or EC50 that approximates it; bounds were set here for any values at or beyond the usual limits of such assays
# ASSAY_CONTEXT: source organism: Mycobacterium tuberculosis variant bovis
REPORTED_ENDPOINT: Kd

Report Kd for PMQQLTQPL please.
≥ 20 µM

* * *

# ASSAYED_SYSTEM: HLA-A*26:01
# TEST: IEDB peptide-MHC binding, purified MHC/competitive/fluorescence; filed as Kd, often an IC50 or EC50 that approximates it; bounds were set here for any values at or beyond the usual limits of such assays
# ASSAY_CONTEXT: source organism: Entamoeba histolytica HM-1:IMSS
pKd: −log10 of the molar value.
REPORTED_ENDPOINT: pKd

Report pKd for KTFEWGVFY please.
≤ 4.70

* * *

# ASSAYED_SYSTEM: HLA-B*18:01
# TEST: IEDB peptide-MHC binding, purified MHC/competitive/fluorescence; filed as Kd, often an IC50 or EC50 that approximates it; bounds were set here for any values at or beyond the usual limits of such assays
# ASSAY_CONTEXT: source organism: Mycobacterium tuberculosis variant bovis BCG str. Pasteur 1173P2
pKd: −log10 of the molar value.
REPORTED_ENDPOINT: pKd

Report pKd for AEDLADHHV please.
≤ 4.70

* * *

# ASSAYED_SYSTEM: HLA-A*68:02
# TEST: IEDB peptide-MHC binding, purified MHC/direct/fluorescence; filed as Kd, often an IC50 or EC50 that approximates it; bounds were set here for any values at or beyond the usual limits of such assays
# ASSAY_CONTEXT: source organism: Escherichia coli O157:H7
REPORTED_ENDPOINT: Kd

Report Kd for RGRGVAIHR please.
≥ 20 µM

* * *

# ASSAYED_SYSTEM: HLA-A*68:02
# TEST: IEDB peptide-MHC binding, purified MHC/competitive/radioactivity; filed as Kd, often an IC50 or EC50 that approximates it; bounds were set here for any values at or beyond the usual limits of such assays
# ASSAY_CONTEXT: source organism: Dengue virus 3 Sri Lanka/1266/2000
REPORTED_ENDPOINT: Kd (nM)
Numeric answer only, unit nM assumed.

Report Kd for ETYQLWTALV please.
0.07

* * *

# ASSAYED_SYSTEM: HLA-B*15:09
# TEST: IEDB peptide-MHC binding, purified MHC/direct/fluorescence; filed as Kd, often an IC50 or EC50 that approximates it; bounds were set here for any values at or beyond the usual limits of such assays
# ASSAY_CONTEXT: source organism: Influenza A virus (A/Taiwan/2/2006(H1N1))
REPORTED_ENDPOINT: Kd

Report Kd for ELDEIGEDV please.
≥ 20 µM
